biological target: T1, KIR3DL2 recombinant protein (R&D Systems) (human, UniProt P43630 28-340); assay: SCK kinetic method
T1 construct: Bought protein; also called rec KIR3DL2; recombinant KIR3DL2-Fc fusion protein; not shown: Fc part of the bought fusion protein; not described
T1 sequence (P43630 28-340 A108T): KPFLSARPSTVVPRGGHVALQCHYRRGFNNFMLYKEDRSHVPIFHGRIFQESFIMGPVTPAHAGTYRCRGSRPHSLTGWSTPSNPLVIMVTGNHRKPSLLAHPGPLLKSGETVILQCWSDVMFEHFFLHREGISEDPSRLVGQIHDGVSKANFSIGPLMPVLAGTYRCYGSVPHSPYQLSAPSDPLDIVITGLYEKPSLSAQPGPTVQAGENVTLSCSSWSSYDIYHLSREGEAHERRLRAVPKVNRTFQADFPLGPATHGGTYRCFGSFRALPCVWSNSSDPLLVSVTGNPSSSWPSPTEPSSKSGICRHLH
measure.name: pKd
Value format note: pKd is -log10 of concentration (mol/L); just state the number.

- binder: "chimeric 15C11 of human IgG1 Fc isotype (antibody, V domains shown, Human-mouse chimeric antibody with the variable regions of murine 15C11; also called chim15C11; Chim15C11) VH: EVKLEESGGGLVQPGGSMKLSCAASGFTFSDAWMDWVRQSPEKGLEWVAEIRSKANNHATYYAESVKGRFTISRDDSKSSVYLRMNSLRAEDTGIYYCTGGYYPVYWGQGTLVTVSA VL: DIQMTQSPSSLSASLGGKVTITCKASQDINKNIAWYQHKPGKGPRLLIHYTSTLQPGFPSRFSGSGSGRDYSFSISNLEPEDLATYYCLQYDNLLTFGGGTKLEIK"
  pKd: 9.66
- binder: "Hum13-K32-15C11 (antibody, V domains shown, also called H1/L3) VH: EVQLVESGGGLVQPGGSLRLSCAASGFTFSDAWMDWVRQAPGKGLEWVGRIRSKANNHATAYAASVKGRFTISRDDSKNSLYLQMNSLKTEDTAVYYCTGGYYPVYWGQGTLVTVSS VL: DIQMTQSPSSLSASVGDRVTITCKASQDINKNIAWYQHKPGKAPKLLIHYTSTLQPGVPSRFSGSGSGRDYTFTISSLQPEDIATYYCLQYDNLLTFGGGTKVEIK"
  pKd: 8.95
- binder: "Hum22-K32-15C11 (antibody, V domains shown, also called H2/L2) VH: EVQLVESGGGLVQPGGSLRLSCAASGFTFSDAWMDWVRQAPGKGLEWVGEIRSKANNHATYYAASVKGRFTISRDDSKNSLYLQMNSLKTEDTAVYYCTGGYYPVYWGQGTLVTVSS VL: DIQMTQSPSSLSASVGDRVTITCKASQDINKNIAWYQHKPGKAPKLLIHYTSTLQPGVPSRFSGSGSGTDFTFTISSLQPEDIATYYCLQYDNLLTFGGGTKVEIK"
  pKd: 9.19

## Task # query: pKd of entry antibody 15C11 (antibody, mouse IgG2a, V domains shown, also called M-K32-15C11; 15C11-PE (PE-labelled form)) VH: EVKLEESGGGLVQPGGSMKLSCAASGFTFSDAWMDWVRQSPEKGLEWVAEIRSKANNHATYYAESVKGRFTISRDDSKSSVYLRMNSLRAEDTGIYYCTGGYYPVYWGQGTLVTVSA VL: DIQMTQSPSSLSASLGGKVTITCKASQDINKNIAWYQHKPGKGPRLLIHYTSTLQPGFPSRFSGSGSGRDYSFSISNLEPEDLATYYCLQYDNLLTFGGGTKLEIK
## Result 9.43
